target: UniProt:P30530; assay: AXL (h) kinase activity test (EZ Reader mobility shift, FLPeptide30); format: biochemical; conditions: ATP 100 μM, AXL 1 nM
pIC50: −log10 of the molar value.
OBSERVATION_TYPE: pIC50

Consider the reported pIC50 for these compounds:
• CC(C)C(=O)N1CCC(c2cc(-c3ccc(NC(=O)c4c5n(n(-c6ccccc6)c4=O)CCOC5)cc3)c3c(N)ncnn23)CC1 = 7.30 to 8.30
• CC(C)(O)C(=O)N1CCC(c2cc(-c3ccc(NC(=O)c4c5n(n(-c6ccccn6)c4=O)CCOC5)cc3F)c3c(N)ncnn23)CC1 = 7.00 to 7.30

Need pIC50, item "[2H][C@]1(O)CC[C@H](c2cc(-c3ccc(NC(=O)c4c5n(n(-c6ccccc6)c4=O)CCOC5)cc3F)c3c(N)ncnn32)CC1"
7.30 to 8.30

Then "CC(C)(F)C(=O)N1CCC(c2cc(-c3ccc(NC(=O)c4c5n(n(-c6ccccn6)c4=O)CCOC5)cc3F)c3c(N)ncnn23)CC1" ?
7.00 to 7.30

Then "Nc1ncnn2c(C3CCNCC3)cc(-c3ccc(NC(=O)c4c5n(n(-c6ccccc6)c4=O)CCOC5)cc3)c12" ?
< 7.00

Then "CC(C)C(=O)N1CCC(c2cc(-c3ccc(NC(=O)c4c5n(n(-c6ccccc6)c4=O)CCCC5)cc3F)c3c(N)ncnn23)CC1" ?
7.30 to 8.30

Then "Cn1cc(-n2c(=O)c(C(=O)Nc3ccc(-c4cc(C5CCN(C(=O)C6CC6)CC5)n5ncnc(N)c45)cc3)c3n2CCCC3)cn1" ?
7.30 to 8.30

----------
target: CYP3A4 (Homo sapiens (Human), UniProt P08684); conditions: hepatocytes, 2 days, 10 μM
OBSERVATION_TYPE: Gene expression CYP3A4 Fold of induction

Consider the reported Gene expression CYP3A4 Fold of induction for these compounds:
- CC(C)(O)C(=O)N1CCC(c2cc(-c3ccc(NC(=O)c4c5n(n(-c6ccccn6)c4=O)CCCC5)cc3F)c3c(N)ncnn23)CC1 [example 29]: 6.37
- CC(C)C(=O)N1CCC(c2cc(-c3ccc(NC(=O)c4c5n(n(-c6ccccc6)c4=O)CCOC5)cc3)c3c(N)ncnn23)CC1 [example 3]: 4.40
- Nc1ncnn2c1c(-c1ccc(NC(=O)c3c4n(n(-c5ccccn5)c3=O)CCOC4)cc1F)cc2[C@H]1CC[C@H](O)CC1 [example 31]: 0.944
- CC(C)C(=O)N1CCC(c2cc(-c3ccc(NC(=O)c4c5n(n(-c6ccccc6)c4=O)CCCC5)cc3F)c3c(N)ncnn23)CC1 [example 16]: 276
- Nc1ncnn2c1c(-c1ccc(NC(=O)c3c4n(n(-c5ccccc5)c3=O)CCOC4)cc1F)cc2[C@H]1CC[C@H](O)CC1 [example 22]: 1.31

(1) Nc1ncnn2c(C3CCN(C(=O)C4CC4)CC3)cc(-c3ccc(NC(=O)c4c5n(n(-c6ccccn6)c4=O)CCCC5)cc3F)c12 [example 10]
(2) CC(C)C(=O)N1CCC(c2cc(-c3ccc(NC(=O)c4c5n(n(-c6ccccc6)c4=O)CCCC5)cc3)c3c(N)ncnn23)CC1 [example 19]
Could you tell me which of 1 and 2 has the lower Gene expression CYP3A4 Fold of induction reading? Lab log: write the label of the selected item as the result.
1
(1: 24.7, 2: 284)

----------
target: AXL (h) kinase (Homo sapiens (Human), UniProt P30530)
Sequence (P30530 473-894): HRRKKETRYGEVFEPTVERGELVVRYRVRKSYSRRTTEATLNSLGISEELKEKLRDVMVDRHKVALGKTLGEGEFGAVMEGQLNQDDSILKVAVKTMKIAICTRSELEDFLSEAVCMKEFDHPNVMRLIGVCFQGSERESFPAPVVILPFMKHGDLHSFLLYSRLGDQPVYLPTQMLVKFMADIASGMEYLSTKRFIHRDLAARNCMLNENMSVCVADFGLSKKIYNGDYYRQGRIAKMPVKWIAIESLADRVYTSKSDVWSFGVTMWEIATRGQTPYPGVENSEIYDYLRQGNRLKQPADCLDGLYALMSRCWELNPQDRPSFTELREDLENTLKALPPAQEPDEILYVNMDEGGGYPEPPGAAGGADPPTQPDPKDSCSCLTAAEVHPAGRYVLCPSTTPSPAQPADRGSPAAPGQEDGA
Property: IC50; scope: individual molecules

- Nc1ncnn2c1c(-c1ccc(NC(=O)c3c4n(n(-c5ccccc5)c3=O)CCOC4)cc1)cc2[C@H]1CC[C@H](O)CC1: < 5 nM
- CC(C)(C)C(=O)N1CCC(c2cc(-c3ccc(NC(=O)c4c5n(n(-c6ccccn6)c4=O)CCOC5)cc3F)c3c(N)ncnn23)CC1: 5 to 50 nM

Proceed to the following item.
Lab note: need IC50 with AXL (h) kinase (Homo sapiens (Human), UniProt P30530) for entry "CC(C)(O)C(=O)N1CCC(c2cc(-c3ccc(NC(=O)c4c5n(n(-c6ccccn6)c4=O)CCCC5)cc3F)c3c(N)ncnn23)CC1" , please look it up.
5 to 50 nM

----------
molecular target: CYP3A4 (Homo sapiens (Human)); conditions: hepatocytes, 2 days, 10 μM
OBSERVATION_TYPE: Enzymatic activity CYP3A4 Fold of induction

• CC(C)C(=O)N1CCC(c2cc(-c3ccc(NC(=O)c4c5n(n(-c6ccccc6)c4=O)CCCC5)cc3F)c3c(N)ncnn23)CC1 = 1.26
• Nc1ncnn2c(C3CCN(C(=O)C4CC4)CC3)cc(-c3ccc(NC(=O)c4c5n(n(-c6ccccn6)c4=O)CCCC5)cc3F)c12 = 0.779

(A) Nc1ncnn2c1c(-c1ccc(NC(=O)c3c4n(n(-c5ccccn5)c3=O)CCCC4)cc1F)cc2[C@H]1CC[C@H](O)CC1
(B) CC(C)C(=O)N1CCC(c2cc(-c3ccc(NC(=O)c4c5n(n(-c6ccccc6)c4=O)CCCC5)cc3)c3c(N)ncnn23)CC1
Could you tell me which of A and B has the lower Enzymatic activity CYP3A4 Fold of induction reading? Lab log: write the label of the selected item as the result.
A
(A: 0.836, B: 1.5)

----------
Measured IC50 on AXL (h) kinase (Homo sapiens (Human)) follows.

Lab note: need IC50 with AXL (h) kinase (Homo sapiens (Human)) for entry CC(C)(F)C(=O)N1CCC(c2cc(-c3ccc(NC(=O)c4c5n(n(-c6ccccn6)c4=O)CCCC5)cc3F)c3c(N)ncnn23)CC1 [example 26] , please look it up.
5 to 50 nM

Then Nc1ncnn2c(C3CCN(C(=O)C4CC4)CC3)cc(-c3ccc(NC(=O)c4c5n(n(-c6ccncc6)c4=O)CCCC5)cc3)c12 [example 44] ?
50 to 100 nM

Then CC(C)(F)C(=O)N1CCC(c2cc(-c3ccc(NC(=O)c4c5n(n(-c6ccccn6)c4=O)CCCC5)cc3)c3c(N)ncnn23)CC1 [example 25] ?
5 to 50 nM

----------
target: CYP3A4 (Homo sapiens (Human)); details: hepatocytes, 2 days, 10 μM
OBSERVATION_TYPE: Enzymatic activity CYP3A4 Fold of induction

* CC(C)(O)C(=O)N1CCC(c2cc(-c3ccc(NC(=O)c4c5n(n(-c6ccccn6)c4=O)CCCC5)cc3F)c3c(N)ncnn23)CC1 | 1.06
* Nc1ncnn2c1c(-c1ccc(NC(=O)c3c4n(n(-c5ccccn5)c3=O)CCOC4)cc1F)cc2[C@H]1CC[C@H](O)CC1 | 0.913
* CC(C)C(=O)N1CCC(c2cc(-c3ccc(NC(=O)c4c5n(n(-c6ccccc6)c4=O)CCOC5)cc3)c3c(N)ncnn23)CC1 | 0.801
* Nc1ncnn2c1c(-c1ccc(NC(=O)c3c4n(n(-c5ccccc5)c3=O)CCOC4)cc1F)cc2[C@H]1CC[C@H](O)CC1 | 1.02

----------
molecular target: UniProtKB P30530
Property: IC50; scope: individual molecules

Consider the reported IC50 for these molecules:
* CC(C)(F)C(=O)N1CCC(c2cc(-c3ccc(NC(=O)c4c5n(n(-c6cccnn6)c4=O)CCCC5)cc3)c3c(N)ncnn23)CC1 [example 52] | 5 to 50 nM
* CC(C)C(=O)N1CCC(c2cc(-c3ccc(NC(=O)c4c5n(n(-c6ccccn6)c4=O)CCCC5)cc3)c3c(N)ncnn23)CC1 [example 18] | 5 to 50 nM

Proceed to the following item.
Need IC50, item Nc1ncnn2c(C3CCNCC3)cc(-c3ccc(NC(=O)c4c5n(n(-c6ccccc6)c4=O)CCC5)cc3)c12 [example 5]
> 100 nM
